Test: HARVARD: Cytotoxicity in HepG2 cell line
Settings: human, HepG2 cells
MEASURED PROPERTY: IC50 (µM)
Respond with the bare value in µM.

Solved entries:
STRUCTURE	MEASUREMENT
COc1cccc2c1C(=O)c1c(O)c3c(c(O)c1C2=O)C[C@@](O)(C(=O)CO)C[C@@H]3O[C@H]1C[C@H](N)[C@H](O)[C@H](C)O1	11.1
CC[C@@H]1C=CC=CC[C@H](C)[C@@H](O)[C@@H](C)C(=O)[C@H](C)[C@@H](O)[C@H](C)C(=O)[C@H](C)[C@@H](O)[C@H](C)C=CC(=O)O[C@H]2[C@@H](C)[C@@H](CC1)O[C@@]1(CC[C@@H](C)[C@@H](C[C@H](C)O)O1)[C@@H]2C	15
COc1cccc2c1C(=O)c1c(O)c3c(c(O)c1C2=O)C[C@@](O)(C(C)=O)C[C@@H]3O[C@H]1C[C@H](N)[C@H](O)[C@H](C)O1	9.12
COc1ccc(CCN2CCC(Nc3nc4ccccc4n3Cc3ccc(F)cc3)CC2)cc1	12
CC(=O)[C@]1(O)Cc2c(O)c3c(c(O)c2[C@@H](O[C@H]2C[C@H](N)[C@H](O)[C@H](C)O2)C1)C(=O)c1ccccc1C3=O	12.3

Then this compound:
Suppose we examine the compound Nc1ccc2ncnc(NCCc3ccc(Oc4ccccc4)cc3)c2c1 ; what IC50 value has been reported?
59

====

Entries annotated with measured IC50
Assay: HARVARD: Cytotoxicity in HepG2 cell line
Settings: human, HepG2 cells

COMPOUND	IC50
CCCOc1ccccc1-c1nc2nn[nH]c2c(=O)[nH]1	> 10 µM

What does the data say about its IC50? Entry: COc1ccc2[nH]c([S+]([O-])Cc3ncc(C)c(OC)c3C)nc2n1 (stereo unspecified)
> 10 µM

Fill in the blank: the reported IC50 of Cc1cc(N)c2ccccc2[n+]1CCCCCCCCCC[n+]1c(C)cc(N)c2ccccc21 [DEQUALINIUM CHLORIDE] is ____.
> 100 µM

State the recorded IC50 for this entry: CO[C@H](C(=O)[C@@H](O)[C@@H](C)O)[C@@H]1Cc2cc3cc(O[C@H]4C[C@@H](O[C@H]5C[C@@H](O)[C@H](O)[C@@H](C)O5)[C@H](O)[C@@H](C)O4)c(C)c(O)c3c(O)c2C(=O)[C@H]1O[C@H]1C[C@@H](O[C@H]2C[C@@H](O[C@H]3C[C@](C)(O)[C@H](O)[C@@H](C)O3)[C@@H](O)[C@@H](C)O2)[C@H](O)[C@@H](C)O1
> 10 µM

Please give the measured IC50 for this compound: COc1c(C)c2c(c(O)c1C/C=C(\C)CCC(=O)O)C(=O)OC2
> 100 µM

Which value of IC50 has been reported for COc1ccc2[nH]c([S+]([O-])Cc3ncc(C)c(OC)c3C)nc2c1 (stereo unspecified) in the records?
> 10 µM
